Source listed as patent US20230391760A1.

assayedSystem: GLP-1 Receptor (Homo sapiens, UniProt P43220)
Sequence (P43220 24-463, species assumed): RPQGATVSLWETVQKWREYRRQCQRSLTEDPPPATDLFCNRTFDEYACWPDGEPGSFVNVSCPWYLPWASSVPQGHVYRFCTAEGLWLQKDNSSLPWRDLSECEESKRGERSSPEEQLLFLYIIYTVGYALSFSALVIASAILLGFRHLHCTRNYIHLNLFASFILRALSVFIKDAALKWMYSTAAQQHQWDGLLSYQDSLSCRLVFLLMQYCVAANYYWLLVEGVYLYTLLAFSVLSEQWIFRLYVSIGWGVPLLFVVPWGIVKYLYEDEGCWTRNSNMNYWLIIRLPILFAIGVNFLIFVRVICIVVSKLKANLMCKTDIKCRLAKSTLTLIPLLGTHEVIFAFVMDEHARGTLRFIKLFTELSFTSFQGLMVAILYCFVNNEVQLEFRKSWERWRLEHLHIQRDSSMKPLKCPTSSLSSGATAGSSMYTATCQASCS
assayProtocol: GLP-1R agonist cAMP stimulation assay (HEK293/GLP1R/CRE-LUC cells, cAMP dynamic 2 Kit)
statedConditions: HEK293/CRE-Luc cell line stably expressing the GLP-1 Receptor, 30 min at 37° C.
assayReadout: pEC50
pEC50 is a log-scale quantity: -log10 of the concentration expressed in molar.

A selection of reference data follows.
>>> experimentalresult("O=c1[nH]c(-c2cc3nc(CN4CCC(c5ccnc(OCc6ccc(Cl)cc6F)n5)CC4)n(C[C@@H]4CCO4)c3cn2)no1 [Compound 460a]")
9.82
>>> experimentalresult("O=C1NCCN1c1ccc2c(c1)nc(CN1CCC(c3cccc(OCc4ccc(Cl)cc4F)n3)CC1)n2C[C@@H]1CCO1 [Compound 123a]")
8.40

Please state recorded pEC50 (tested on GLP-1 Receptor (Homo sapiens, UniProt P43220)) of Cc1nnc(-c2ccc3c(c2)nc(CN2CCC(c4cccc5c4OC(C)(c4ccc(Cl)cn4)O5)CC2)n3CC2(C#N)CC2)[nH]1 (stereo not drawn) [Compound 414]
10.26

Next compound up: CC1(c2ccc(Cl)cc2F)Oc2cccc(C3CCN(Cc4nc5cc(-c6nnc(C(F)F)[nH]6)cnc5n4C[C@@H]4CCO4)CC3)c2O1 (stereo partly drawn) [Compound 244a]
9.85

Next compound up: CC1(c2ccc(Cl)cc2F)Oc2cccc(C3CCN(Cc4nc5cc(-c6nnc(C(F)(F)F)[nH]6)cnc5n4C[C@@H]4CCO4)CC3)c2O1 (mixture of isomers) [Compound 224a]
10.74

Next compound up: N#Cc1ccc(COc2nc(C3CCN(Cc4nc5cc(-c6nnc(C(F)(F)F)[nH]6)ncc5n4C[C@@H]4CCO4)CC3)ccc2F)c(F)c1 [Compound 485a]
11.02

Next compound up: O=C(Nc1ccc2c(c1)nc(CN1CCC(c3cccc(OCc4ccc(Cl)cc4F)n3)CC1)n2C[C@@H]1CCO1)C1COCCC1(F)F (stereo partly drawn) [Compound 189a]
9.09

Next compound up: CC1(c2ccc(C#N)cc2)Oc2cccc(C3CCN(Cc4nc5cc(-c6nnc(C(F)(F)F)[nH]6)ccc5n4C[C@@H]4CCO4)CC3)c2O1 (stereo partly drawn) [Compound 260a]
10.51

Next compound up: Cc1nnc(-c2cc3nc(CN4CCC(c5cccc6c5O[C@@](C)(c5ccc(C#N)cc5F)O6)CC4)n(C[C@@H]4CCO4)c3cn2)[nH]1 [Compound 288a]
11.06

Next compound up: O=c1[nH]c(-c2cnc3c(c2)nc(CN2CC=C(c4cccc(OCc5ccc(Cl)cc5F)c4)CC2)n3C[C@@H]2CCO2)no1 [Compound 320a]
8.17

Next compound up: Cc1cn(-c2ccc3c(c2)nc(CN2CCC(c4cccc(OCc5ccc(Cl)cc5F)n4)CC2)n3C[C@@H]2CCO2)nn1 [Compound 210a]
8.38

Next compound up: C[C@]1(c2ccc(Cl)cc2F)Oc2cccc(C3CCN(Cc4nc5cc(-c6nnn[nH]6)ncc5n4C[C@@H]4CCO4)CC3)c2O1 [Compound 417a]
11.19

###

assayedSystem: GLP-1 Receptor (Homo sapiens)
assayProtocol: GLP-1R agonist cAMP stimulation assay (HEK293/GLP1R/CRE-LUC cells, cAMP dynamic 2 Kit)
statedConditions: HEK293/CRE-Luc cell line stably expressing the GLP-1 Receptor, 30 min at 37° C.
pEC50: −log10 of the molar value.
Label no if pEC50 falls below 9; label yes in every other case.

Tell me whether pEC50 is at least 9 here: CSc1nnc(-c2ccc3c(c2)nc(CN2CCC(c4cccc5c4OC(C)(c4ccc(Cl)cc4F)O5)CC2)n3C[C@@H]2CCO2)[nH]1 (stereo partly drawn) [Compound 252a]
yes

Next molecule up: C[C@H]1CN(c2nc(OCc3ccc(Cl)cc3F)ccc2F)CCN1Cc1nc2cc(-c3nnc(C(F)(F)F)[nH]3)ncc2n1C[C@@H]1CCO1 [Compound 525a]
yes

Next molecule up: Fc1cc(Cl)ccc1COc1cc(C2CCN(Cc3nc4cc(-c5nnc(C(F)(F)F)[nH]5)ncc4n3C[C@@H]3CCO3)CC2)ccc1F [Compound 470a]
yes

Next molecule up: CO[C@H](C)Cn1c(CN2CCC(c3cccc4c3O[C@@](C)(c3ccc(Cl)cc3F)O4)CC2)nc2cc(-c3noc(=O)[nH]3)ncc21 [Compound 419a]
yes

Next molecule up: O=C(O)c1c[nH]nc1-c1ccc2c(c1)nc(CN1CCC(c3cccc(OCc4ccc(Cl)cc4F)n3)CC1)n2C[C@@H]1CCO1 [Compound 214a]
no

Next molecule up: C[C@]1(c2ccc(Cl)cn2)Oc2cccc(C3CCN(Cc4nc5cc(-c6nnn[nH]6)ncc5n4C[C@@H]4CCO4)CC3)c2O1 [Compound 449a]
yes

Next molecule up: Cc1nnc(-c2cnc3c(c2)nc(CN2CCC(c4cccc5c4O[C@@](C)(c4ccc(Cl)cc4F)O5)CC2)n3C[C@@H]2CCO2)[nH]1 [Compound 292a]
yes
